The values you see were collected from PubChem BioAssay.

Recorded Her2 level, one value per entry.
- measured-on: Receptor tyrosine-protein kinase erbB-2 (Homo sapiens)
- procedure-details: reducers of endogenous Her2 protein level, primary screen, SKBR3 breast tumor cells, AlphaScreen, ATP viability (AID 461);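 further: lower value means less Her2 protein in the cells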
- test-conditions: 18-24 h, at 10 µM, stronger effect = lower value

[
  {
    "compound": "O=C(NCc1cccs1)c1cc2c(s1)CCCC2",
    "unit-tag": "%",
    "Her2 level": 102
  },
  {
    "compound": "COc1ccc(S(=O)(=O)N2CCSC2c2ccccc2)cc1 (configuration not stated)",
    "unit-tag": "%",
    "Her2 level": 90.5
  },
  {
    "compound": "COc1cccc(-n2c(C)nc3c(cnn3-c3ccc(C)cc3)c2=O)c1",
    "unit-tag": "%",
    "Her2 level": 102
  },
  {
    "compound": "COc1ccccc1-c1nnc2sc(-c3ccc(N(C)C)cc3)nn12",
    "unit-tag": "%",
    "Her2 level": 64
  },
  {
    "compound": "Cc1cnc(C(=O)OCC(=O)Nc2ccc(Cl)cc2Cl)cn1",
    "unit-tag": "%",
    "Her2 level": 100
  },
  {
    "compound": "CN(C)c1nc(Nc2ccc(Cl)cc2)nc(OCC#N)n1",
    "unit-tag": "%",
    "Her2 level": 80.5
  },
  {
    "compound": "Cc1ccc(C(C)n2cc(C(=O)NCCN3CCN(C)CC3)nn2)cc1 (configuration not stated)",
    "unit-tag": "%",
    "Her2 level": 94
  },
  {
    "compound": "O=C(Cn1cnc2c(nnn2Cc2ccc(Cl)cc2)c1=O)NCC1CCCO1 (configuration not stated)",
    "unit-tag": "%",
    "Her2 level": 78
  },
  {
    "compound": "C/C=C/c1ccc(OCCn2cncn2)c(OC)c1",
    "unit-tag": "%",
    "Her2 level": 126
  },
  {
    "compound": "O=C(COc1ccccc1Cl)NCc1ccco1",
    "unit-tag": "%",
    "Her2 level": 78.5
  },
  {
    "compound": "COc1ccc2nc(N3CCC(C)CC3)c(C#N)cc2c1",
    "unit-tag": "%",
    "Her2 level": 101
  },
  {
    "compound": "CS(=O)(=O)c1ccc2nc(NC(=O)CCC(=O)c3cccs3)sc2c1",
    "unit-tag": "%",
    "Her2 level": 102
  },
  {
    "compound": "CC(=Nc1ccc(C)c(C)c1)C1=C(O)CCC1=O",
    "unit-tag": "%",
    "Her2 level": 88.5
  },
  {
    "compound": "CCCCn1c(SCC(=O)Nc2ccc(OC)cc2)nc2ccc(N3CCOCC3)cc2c1=O",
    "unit-tag": "%",
    "Her2 level": 86
  },
  {
    "compound": "Cn1c(C(=O)NCC2CCCO2)cc2c(=O)[nH]c3ccccc3c21 (configuration not stated)",
    "unit-tag": "%",
    "Her2 level": 98
  },
  {
    "compound": "Cc1ccc(-c2cc(C(F)(F)F)n3ncc(C(=O)O)c3n2)cc1",
    "unit-tag": "%",
    "Her2 level": 90.5
  },
  {
    "compound": "COCCN1C(=O)C(=O)/C(=C(/O)c2cccc(S(=O)(=O)N(C)C)c2)C12C(=O)N(C)c1ccccc12 (configuration not stated)",
    "unit-tag": "%",
    "Her2 level": 91.5
  },
  {
    "compound": "COc1nc(OC)nc(N2CCC(C(=O)NC3CCCCCC3)CC2)n1",
    "unit-tag": "%",
    "Her2 level": 102
  },
  {
    "compound": "CCCNC(=O)Nc1ccccc1C(=O)Nc1ccc(OC)cc1",
    "unit-tag": "%",
    "Her2 level": 81
  },
  {
    "compound": "CCOc1cc(S(=O)(=O)NCc2ccccn2)c(C)cc1C",
    "unit-tag": "%",
    "Her2 level": 84.5
  },
  {
    "compound": "CCOc1ccc(OCC)c(NC(=O)CN2CCN(C(=O)c3ccco3)CC2)c1",
    "unit-tag": "%",
    "Her2 level": 103
  },
  {
    "compound": "O=C(CSc1nnc2ncccn12)N1CCCCCC1",
    "unit-tag": "%",
    "Her2 level": 85
  },
  {
    "compound": "COc1ccc(CCNC(=O)C2CCN(S(=O)(=O)c3cc(OC)ccc3OC)CC2)cc1",
    "unit-tag": "%",
    "Her2 level": 95
  },
  {
    "compound": "COc1ccccc1C1c2c(oc3ccc(Cl)cc3c2=O)C(=O)N1c1cc(C)on1 (configuration not stated)",
    "unit-tag": "%",
    "Her2 level": 82.5
  },
  {
    "compound": "CCc1cc(C)cc(OCCNC(=O)c2ncn[nH]2)c1",
    "unit-tag": "%",
    "Her2 level": 110
  },
  {
    "compound": "C=CCN(C(=O)CNS(=O)(=O)c1ccccc1)C(C(=O)NCCOC)c1ccncc1 (configuration not stated)",
    "unit-tag": "%",
    "Her2 level": 103
  },
  {
    "compound": "COC(=O)C1=C(C)OC(N)=C(C#N)C1c1ccccc1 (configuration not stated)",
    "unit-tag": "%",
    "Her2 level": 77
  },
  {
    "compound": "CC(=O)Nc1ccc(OC(=O)c2cccs2)cc1",
    "unit-tag": "%",
    "Her2 level": 97
  },
  {
    "compound": "Cc1ccc(N2CC(C)Cn3c2nc2c3c(=O)n(CC(=O)OCc3ccccc3)c(=O)n2C)cc1C (configuration not stated)",
    "unit-tag": "%",
    "Her2 level": 99.5
  },
  {
    "compound": "O=C(NCC1CCCO1)C1c2ccccc2C(=O)N1C1CCCCCC1 (configuration not stated)",
    "unit-tag": "%",
    "Her2 level": 89
  },
  {
    "compound": "Cc1cc(C)nc(SCc2nnc(SCc3ccccc3Cl)o2)n1",
    "unit-tag": "%",
    "Her2 level": 78.5
  },
  {
    "compound": "CCOCCc1nnc(NC(=O)c2ccc(OC)c(OC)c2)s1",
    "unit-tag": "%",
    "Her2 level": 86
  },
  {
    "compound": "c1ccc(CCn2nnnc2CN2CCN(C3CCCC3)CC2)cc1",
    "unit-tag": "%",
    "Her2 level": 95
  },
  {
    "compound": "Cc1ccc(C(=O)CCC2CCCC2=O)cc1 (configuration not stated)",
    "unit-tag": "%",
    "Her2 level": 102
  },
  {
    "compound": "COc1cc(C(=O)N2CCC(c3nc(-c4cccnc4)no3)CC2)cc(OC)c1OC",
    "unit-tag": "%",
    "Her2 level": 110
  },
  {
    "compound": "Cc1ccc(-c2cc(C(=O)N3CCCC3)no2)cc1",
    "unit-tag": "%",
    "Her2 level": 106
  },
  {
    "compound": "CCSCCC(NC1=CC(=O)CC(C)(C)C1)C(=O)O (configuration not stated)",
    "unit-tag": "%",
    "Her2 level": 89
  },
  {
    "compound": "Cn1c(CN2CCOCC2)nc2cc(NC(=O)c3ccccc3Cl)ccc21",
    "unit-tag": "%",
    "Her2 level": 103
  },
  {
    "compound": "CN1CCN(C(c2cccc(C(F)(F)F)c2)c2nnnn2C(C)(C)C)CC1 (configuration not stated)",
    "unit-tag": "%",
    "Her2 level": 86.5
  },
  {
    "compound": "CCOC(=O)c1cnn(-c2cc(C)nc3c(-c4ccccc4)c(C)nn23)c1N",
    "unit-tag": "%",
    "Her2 level": 89
  },
  {
    "compound": "O=C(C(c1ccccc1)c1ccccc1)N1CCN(Cc2ccccn2)CC1",
    "unit-tag": "%",
    "Her2 level": 112
  },
  {
    "compound": "O=C(NCCCN1CCCC1=O)c1cncc(Br)c1",
    "unit-tag": "%",
    "Her2 level": 83.5
  },
  {
    "compound": "COC(=O)c1sccc1NC(=O)c1csc(C)c1",
    "unit-tag": "%",
    "Her2 level": 20
  },
  {
    "compound": "Cc1ccc(S(=O)(=O)N2CCN(C(=O)CN3C(=O)NC4(CCOc5ccccc54)C3=O)CC2)cc1 (configuration not stated)",
    "unit-tag": "%",
    "Her2 level": 108
  },
  {
    "compound": "COc1cccc(CN2CCN(C(=O)c3ccco3)CC2)c1OC",
    "unit-tag": "%",
    "Her2 level": 90
  },
  {
    "compound": "Cc1ccc(N2C(=O)c3ccccc3C2Nc2cccnc2)nc1 (configuration not stated)",
    "unit-tag": "%",
    "Her2 level": 99.5
  },
  {
    "compound": "O=C(NCc1cccnc1)c1ccc2c(c1)OCO2",
    "unit-tag": "%",
    "Her2 level": 102
  }
]
